Tested on: Human Rhinovirus serotypes HRV- 2,-29,-39,-85,-9,-15,-51,-59,-63,-89,-41
Assay: Picornavirus Minimal Inhibitory Concentration Test (cytopathic effect reduction assay), first panel of rhinoviruses
Assay type: cell-based
Conditions: Human rhinovirus sp.; medium value of the IC50-values of all serotypes of the first panel; Ohio Hela cells, 3 to 5 days at 33°C; IC50 = concentration protecting 50% of the cells from cytopathic effects; read-out: Med₁
Procedure: The Minimal Inhibitory Concentration of the compounds of the present invention against the Human Rhinovirus strains (HRV) -2,-9,-14,-15,-29,-39,-41,-42,-45,-51, -59, -63,-70,-72,-85,-86 and -89 was determined by a standard cytopathic effect reduction assay as follows. To each of the ninty six (96) wells of a microtiter 96 well tissue culture plate there was added 60 µl of a Ohio Hela cell maintenance medium [Eagle's Basal medium supplemented with 5% Foetal Calf Serum (FCS)]. […]
Measured metric: IC50 (µg/mL)

>>> observed("CCOC(=O)c1ccc(OCCC2CCN(c3nsc4ccccc34)CC2)cc1")
0.144
>>> observed("CCOC(=O)c1ccc(OCCC2CCN(c3nnc(C)s3)CC2)cc1")
0.01
>>> observed("CCOC(=O)c1ccc(OCCCN2CCN(c3nncs3)CC2)cc1")
0.376
>>> observed("CCc1noc(-c2ccc(OCCC3CCN(c4nnc(Br)s4)CC3)cc2)n1")
0.011
>>> observed("CCOC(=O)c1ccc(OCCC2CCN(c3nnc(Br)s3)CC2)cc1")
0.006

a. CCOC(=O)c1ccc(OCCN2CCN(c3nc(C(=O)OCC)cs3)CC2)cc1
b. CCOC(=O)c1ccc(OCCN2CCN(c3nc4ccccc4s3)CC2)cc1
c. CCOC(=O)c1ccc(OCCN2CCN(c3nnc(Br)s3)CC2)cc1
d. CCOC(=O)c1ccc(OCCCN2CCN(c3nnc(Br)s3)CC2)cc1
Q. rank_up(items): orders items by reported IC50 in ascending numerical order. # list labels per requested ordering
A. c, a, d, b
(c: 0.044 µg/mL, a: 0.088 µg/mL, d: 0.175 µg/mL, b: 0.312 µg/mL)

1. CCOC(=O)c1ccc(OCCC2CCN(C3=NS(=O)(=O)c4ccccc43)CC2)cc1
2. CCOC(=O)c1ccc(OCCC2CCN(c3nc(C(=O)OCC)cs3)CC2)cc1
Q. Which gives the smaller IC50 number: 1 or 2 ? Identify your pick by its label.
A. 2
